Source listed as ChEMBL document CHEMBL4138252.

system under test: Protein deacetylase HDAC6 (Homo sapiens, UniProt Q9UBN7)
Sequence (Q9UBN7 whole entry, the tested form may be a part): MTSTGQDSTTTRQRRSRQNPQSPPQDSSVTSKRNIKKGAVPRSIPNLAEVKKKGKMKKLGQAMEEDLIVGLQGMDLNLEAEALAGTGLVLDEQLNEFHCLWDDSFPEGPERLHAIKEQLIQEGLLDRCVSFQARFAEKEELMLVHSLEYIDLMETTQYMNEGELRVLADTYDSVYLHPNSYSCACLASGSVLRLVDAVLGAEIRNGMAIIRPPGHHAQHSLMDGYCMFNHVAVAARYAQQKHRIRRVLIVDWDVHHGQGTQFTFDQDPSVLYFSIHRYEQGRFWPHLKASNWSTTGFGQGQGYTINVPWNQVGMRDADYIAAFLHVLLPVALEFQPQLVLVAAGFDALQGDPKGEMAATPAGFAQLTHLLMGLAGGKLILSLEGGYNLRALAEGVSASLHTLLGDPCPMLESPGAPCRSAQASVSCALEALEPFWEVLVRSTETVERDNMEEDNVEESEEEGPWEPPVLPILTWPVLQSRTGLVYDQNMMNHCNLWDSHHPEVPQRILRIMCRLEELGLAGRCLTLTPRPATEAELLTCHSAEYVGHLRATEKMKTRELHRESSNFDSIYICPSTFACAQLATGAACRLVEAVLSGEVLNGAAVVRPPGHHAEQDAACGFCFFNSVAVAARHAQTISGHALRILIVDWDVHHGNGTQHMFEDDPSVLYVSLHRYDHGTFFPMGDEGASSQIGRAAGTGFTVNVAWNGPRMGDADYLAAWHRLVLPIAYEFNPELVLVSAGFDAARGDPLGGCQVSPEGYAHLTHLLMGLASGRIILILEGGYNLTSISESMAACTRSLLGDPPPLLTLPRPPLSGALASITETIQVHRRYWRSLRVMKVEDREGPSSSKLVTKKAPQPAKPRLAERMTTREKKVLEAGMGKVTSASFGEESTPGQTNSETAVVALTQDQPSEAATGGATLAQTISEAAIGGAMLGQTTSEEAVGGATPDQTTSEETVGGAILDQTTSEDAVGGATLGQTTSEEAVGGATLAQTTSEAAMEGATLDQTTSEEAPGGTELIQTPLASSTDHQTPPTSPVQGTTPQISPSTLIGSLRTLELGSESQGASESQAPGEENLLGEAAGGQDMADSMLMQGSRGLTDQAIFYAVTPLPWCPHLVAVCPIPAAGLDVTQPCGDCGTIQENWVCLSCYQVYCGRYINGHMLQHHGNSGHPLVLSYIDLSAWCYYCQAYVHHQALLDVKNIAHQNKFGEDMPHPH
protocol summary: Inhibition of recombinant human N-terminal GST-tagged HDAC6 (1 to 1215 residues) expressed in baculovirus infected Sf21 insect cells using RHKKAc as substrate by fluorescence assay
readout: IC50 (nM)
Give bare numbers, in nM.

Lookup: API: value(readout= IC50, system= Protein deacetylase HDAC6 (Homo sapiens, UniProt Q9UBN7), query= Cl.NCCCCNCCCCNCCCN1C(=O)c2ccc3c4c(ccc(c24)C1=O)C(=O)N(CCCCCC(=O)NO)C3=O )
Found: 50

* * *

Test system: dsDNA
protocol summary: Stabilization of 5'6FAM/3'Dabcyl-labelled double stranded DNA (unknown origin) assessed as change in melting temperature at 0.75 uM by fluorescence assay
Format: nucleic-acid assay
readout: ΔTm (°C)
One number for each entry, in °C.

>>> df
                            compound_string  measured_number
0  Cl.NCCCCNCCCCNCCCN1C(=O)c2ccc3c4c(ccc(c24)C1=O)C(=O)N(CCCCCC(=O)NO)C3=O              7.5
1  COc1ccccc1CNCCCN1C(=O)c2ccc3c4c(ccc(c24)C1=O)C(=O)N(CCCNCCCCNCCCN)C3=O              0.6
2  Cl.NCCCNCCCCNCCCN1C(=O)c2ccc3c4c(ccc(c24)C1=O)C(=O)N(CCCCCC(=O)NO)C3=O              3.5

Shift focus to the following entry.
Lookup: If you can, please state the reported ΔTm value of Cl.NCCCNCCCNCCCN1C(=O)c2ccc3c4c(ccc(c24)C1=O)C(=O)N(CCCCCC(=O)NO)C3=O .
Found: 5
